test.system: HCV NS3/4A protease complex, BMS strain (UniProt P27958, C1454S/C1711G, species not given/STRAIN_BMS)
experiment.summary: Recombinant HCV NS3/4A protease complex FRET peptide assay (BMS strain)
Assay type: biochemical, HCV genotype 1a
particulars: NS3/4A BMS strain; read-out: IC50 range
Method: Recombinant HCV NS3/4A Protease Complex FRET Peptide Assay […] The assay was performed in a 96-well polystyrene black plate from Falcon. […] The assay plate was read immediately using the Cytofluor Series 4000 (Perspective Biosystems). The instrument was set to read an emission of 340 nm and excitation of 490 nm at 25° C. […] The percent inhibition was calculated with the following equation: 100−[(δFinh/δFcon)×100] where δF is the change in fluorescence over the linear range of the curve.
pIC50: −log10 of the molar value.
Quick reference: pIC50 of the listed items.

Use these answered entries as a reference point.
C=CC1C[C@]1(NC(=O)[C@@H]1C[C@@H](Oc2nc(Cl)c(OC)c3ccccc23)CN1C(=O)[C@@H](NC(=O)OC(C)(C)C)C(C)(C)C)C(=O)NS(=O)(=O)C1CC1 (some centres unmarked) | 6.00 to 7.00
C=CC1C[C@]1(NC(=O)[C@@H]1C[C@@H](COc2cccc(Br)n2)CN1C(=O)[C@@H](NC(=O)OC)C(C)(C)C)C(=O)NS(=O)(=O)C1CC1 (some centres unmarked) | 4.00 to 5.00
C=C[C@@H]1C[C@]1(NC(=O)[C@@H]1C[C@@H](Oc2nccc3cc(Cl)ccc23)CN1C(=O)[C@@H](NC(=O)OC(C)(C)C)C(C)(C)C)C(=O)NS(=O)(=O)C1CC1 | > 7.00
C=C[C@@H]1C[C@]1(NC(=O)[C@@H]1C[C@@H](Oc2nccc3c(N4CCOCC4)cccc23)CN1C(=O)[C@@H](NC(=O)OC(C)(C)C)C(C)(C)C)C(=O)NS(=O)(=O)C1CC1 | > 7.00

query: Return pIC50 (reported value) for this compound: CC[C@@H]1C[C@]1(NC(=O)[C@@H]1C[C@@H](Oc2nccc3c4c(ccc23)OCCO4)CN1C(=O)[C@@H](NC(=O)OC(C)(C)C)C(C)(C)C)C(=O)NS(=O)(=O)C1CC1
result: > 7.00

###

test.system: HCV NS3/4A protease complex, BMS strain (UniProt P27958, C1454S/C1711G, species not given/STRAIN_BMS)
experiment.summary: Recombinant HCV NS3/4A protease complex FRET peptide assay (BMS strain)
Type: biochemical, HCV genotype 1a
particulars: NS3/4A BMS strain; read-out: IC50 range
pIC50: −log10 of the molar value.
Reported values of pIC50 for individual entries

These solved cases illustrate the format of a correct answer.
C=C[C@@H]1C[C@]1(NC(=O)[C@@H]1C[C@@H](Oc2nccc3ccccc23)CN1C(=O)[C@@H](NC(=O)CC(C)(C)C)C(C)(C)C)C(=O)NS(=O)(=O)C1CC1 | > 7.00
C=C[C@@H]1C[C@]1(NC(=O)[C@@H]1C[C@@H](Oc2nccc3cc(OC)ccc23)CN1C(=O)[C@H](CC(=O)OC)NC(=O)OC(C)(C)C)C(=O)NS(=O)(=O)C1CC1 | > 7.00

Turning now to a further record.
query: Using the record for C=C[C@@H]1C[C@]1(NC(=O)[C@@H]1C[C@@H](Oc2nccc3c(OC)c(Cl)ccc23)CN1C(=O)[C@@H](NC(=O)OC(C)(C)C)C(C)(C)C)C(=O)NS(=O)(=O)C1CC1 , state its measured pIC50.
result: > 7.00

###

test.system: HCV NS3/4A protease complex, BMS strain (UniProt P27958, C1454S/C1711G, species not given/STRAIN_BMS)
experiment.summary: Recombinant HCV NS3/4A protease complex FRET peptide assay (BMS strain)
Assay type: biochemical, HCV genotype 1a
particulars: NS3/4A BMS strain; read-out: IC50 range
pIC50: −log10 of the molar value.
metric: pIC50

Record excerpt, results attached:
C=C[C@@H]1C[C@]1(NC(=O)[C@@H]1CC(Oc2nccc3cc(OC)ccc23)CN1C(=O)[C@@H](NC(=O)OC(C)(C)C)C(C)(C)O)C(=O)NS(=O)(=O)C1CC1 (some centres unmarked) [Compound 89] | > 7.00
C=CC1C[C@]1(NC(=O)[C@@H]1C[C@@H](Oc2nnc(-n3ccnc3)c3ccccc23)CN1C(=O)[C@@H](NC(=O)OC(C)(C)C)C(C)(C)C)C(=O)NS(=O)(=O)C1CC1 (some centres unmarked) [Compound 196] | > 7.00
C=CC1C[C@]1(NC(=O)[C@@H]1C[C@@H](COc2ccnc(-c3ccsc3)c2)CN1C(=O)[C@@H](NC(=O)OC)C(C)(C)C)C(=O)NS(=O)(=O)C1CC1 (some centres unmarked) [Compound 349] | 5.00 to 6.00
C=C[C@@H]1C[C@]1(NC(=O)[C@@H]1C[C@@H](Oc2ccnc(-c3cccs3)c2)CN1C(=O)[C@@H](NC(=O)OC1CCCC1)C(C)(C)C)C(=O)NS(=O)(=O)C1CC1 [Compound 429] | > 7.00

query: For C=CC1CC1(NC(=O)[C@@H]1C[C@@H](Oc2ccnc(N3Cc4ccccc4C3)n2)CN1C(=O)[C@@H](NC(=O)OC)C(C)(C)C)C(=O)NS(=O)(=O)C1CC1 (some centres unmarked) [Compound 342] , write its pIC50.
result: 5.00 to 6.00

###

test.system: HCV NS3/4A protease complex, BMS strain (UniProt P27958, C1454S/C1711G, species not given/STRAIN_BMS)
experiment.summary: Recombinant HCV NS3/4A protease complex FRET peptide assay (BMS strain)
Assay type: biochemical, HCV genotype 1a
particulars: NS3/4A BMS strain; read-out: IC50 range
Measured IC50 of individual entries

C=C[C@@H]1C[C@]1(NC(=O)[C@@H]1C[C@@H](Oc2nccc3cc(OC)ccc23)CN1C(=O)C(NC(=O)OC(C)(C)C)C(C)c1ccccc1)C(=O)NS(=O)(=O)C1CC1 (single isomer, unassigned) [Compound 135] | < 100 nM

query: For C=C[C@@H]1C[C@]1(NC(=O)[C@@H]1C[C@@H](Oc2nc(-c3ccoc3)c(OC)c3ccccc23)CN1C(=O)[C@@H](NC(=O)OC(C)(C)C)C(C)(C)C)C(=O)NS(=O)(=O)C1CC1 , write its IC50.
result: < 100 nM

query: Tell me IC50 reported for C=CC1C[C@]1(NC(=O)[C@@H]1C[C@@H](COc2ccnc(Br)c2)CN1C(=O)[C@@H](NC(=O)OC)C(C)(C)C)C(=O)NS(=O)(=O)C1CC1 (some centres unmarked)
result: 10000 to 100000 nM

query: Please supply the value of reported IC50 for the item C=CC1C[C@]1(NC(=O)[C@@H]1C[C@@H](Oc2nccc3cc(OC(C)(C)C)ccc23)CN1C(=O)[C@@H](NC(=O)OC(C)(C)C)C(C)(C)C)C(=O)NS(=O)(=O)C1CC1 (some centres unmarked)
result: < 100 nM

query: Name the recorded IC50 of the item CC[C@@H]1C[C@]1(NC(=O)[C@@H]1C[C@@H](Oc2nccc3c4c(ccc23)OC(F)(F)O4)CN1C(=O)[C@@H](NC(=O)OC(C)(C)C)C(C)(C)C)C(=O)NS(=O)(=O)C1CC1 in your answer.
result: < 100 nM

###

Test system: HCV replicon in Huh7 cells
experiment.summary: HCV replicon cell-based assay
Design: species or system HCV strain 1B
particulars: Hepatitis C virus, Huh-7; HCV replicon, Huh7 cells; read-out: EC50 range
pEC50: −log10 of the molar value.
metric: pEC50

C=C[C@@H]1C[C@]1(NC(=O)[C@@H]1C[C@@H](Oc2nccc3ccccc23)CN1C(=O)[C@@H](NC(=O)COC)C(C)(C)C)C(=O)NS(=O)(=O)C1CC1 | 5.00 to 6.00
C=C[C@@H]1C[C@]1(NC(=O)[C@@H]1C[C@@H](Oc2nccc3cc(OC)ccc23)CN1C(=O)[C@@H](NC(=O)N[C@H](C(=O)OCc1ccccc1)C(C)C)C(C)(C)C)C(=O)NS(=O)(=O)C1CC1 | > 7.00
C=CC1C[C@]1(NC(=O)[C@@H]1C[C@@H](Oc2nccc3c(SCCC)c(OCC)ccc23)CN1C(=O)[C@@H](NC(=O)OC(C)(C)C)C(C)(C)C)C(=O)NS(=O)(=O)C1CC1 (some centres unmarked) | > 7.00
C=C[C@@H]1C[C@]1(NC(=O)[C@@H]1C[C@@H](Oc2nccc3cc(OC)ccc23)CN1C(=O)[C@@H](NC(=O)OC1CCCC1)[C@H](C)OC)C(=O)NS(=O)(=O)C1CC1 | > 7.00
C=CC1C[C@]1(NC(=O)[C@@H]1C[C@@H](Oc2nc(-c3csc(N(C)C)n3)cc3cc(OC)ccc23)CN1C(=O)[C@@H](NC(=O)OC(C)(C)C)C(C)(C)C)C(=O)NS(=O)(=O)C1CC1 (some centres unmarked) | > 7.00
C=CC1C[C@]1(NC(=O)[C@@H]1C[C@@H](Oc2ccnc3ccc(F)cc23)CN1C(=O)[C@@H](NC(=O)OC(C)(C)C)C(C)(C)C)C(=O)NS(=O)(=O)C1CC1 (some centres unmarked) | > 7.00

query: Name the recorded pEC50 of C=C[C@@H]1C[C@]1(NC(=O)[C@@H]1C[C@@H](Oc2nccc3ccccc23)CN1C(=O)[C@@H](NC(=O)Oc1ccc(F)cc1)C(C)(C)C)C(=O)NS(=O)(=O)C1CC1 , assay system HCV replicon in Huh7 cells.
result: 6.00 to 7.00

query: State, for HCV replicon in Huh7 cells, measured pEC50 of the compound listed here: C=CC1CC1(NC(=O)C1CC(Oc2nc(-c3ccccc3)nc3ccc(OC)cc23)CN1C(=O)[C@@H](NC(=O)OC(C)(C)C)C(C)(C)C)C(=O)NS(=O)(=O)C(C)C (mixture of isomers)
result: 5.00 to 6.00

query: Give the observed pEC50 of C=C[C@@H]1C[C@]1(NC(=O)[C@@H]1C[C@@H](Oc2nccc3ccccc23)CN1C(=O)[C@@H](NC(=O)OCCCCCC)C(C)(C)C)C(=O)NS(=O)(=O)C1CC1 for HCV replicon in Huh7 cells.
result: 6.00 to 7.00

query: Report the value of pEC50 obtained on HCV replicon in Huh7 cells for C=C[C@@H]1C[C@]1(NC(=O)[C@@H]1C[C@@H](Oc2nccc3ccc(C)cc23)CN1C(=O)[C@@H](NC(=O)OC(C)(C)C)C(C)(C)C)C(=O)NS(=O)(=O)C1CC1 .
result: > 7.00

query: Return reported pEC50 for target or system HCV replicon in Huh7 cells, item C=C[C@@H]1C[C@]1(NC(=O)[C@@H]1C[C@@H](Oc2nccc3cc(OC)ccc23)CN1C(=O)[C@@H](NC(=O)OC1CCCC1)C(C)(C)C)C(=O)NS(=O)(=O)C1CCC1 .
result: 6.00 to 7.00

query: Consider the compound C=C[C@@H]1C[C@]1(NC(=O)[C@@H]1CC(Oc2nccc3cc(OC)ccc23)CN1C(=O)[C@@H](NC(=O)c1cnccn1)C(C)(C)C)C(=O)NS(=O)(=O)C1CC1 (some centres unmarked) tested on HCV replicon in Huh7 cells; state its pEC50.
result: 5.00 to 6.00

query: GET pEC50 where system = HCV replicon in Huh7 cells and item = C=CC1CC1(NC(=O)[C@@H]1C[C@@H](OCc2ccc3ccccc3c2)CN1C(=O)[C@@H](NC(=O)OC(C)(C)C)C(C)(C)C)C(=O)NS(C)(=O)=O (some centres unmarked)
result: 5.00 to 6.00

query: Retrieve pEC50 on HCV replicon in Huh7 cells; query C=CC1C[C@]1(NC(=O)[C@@H]1C[C@@H](Oc2noc3cc(OC)ccc23)CN1C(=O)[C@@H](NC(=O)OC(C)(C)C)C(C)(C)C)C(=O)NS(=O)(=O)C1CC1 (some centres unmarked)
result: 6.00 to 7.00

query: Print HCV replicon in Huh7 cells pEC50 for C=C[C@@H]1C[C@]1(NC(=O)[C@@H]1C[C@@H](Oc2cc(-c3cccc(OC)c3)nc3c(C)noc23)CN1C(=O)[C@@H](NC(=O)OC(C)(C)C)C(C)(C)C)C(=O)NS(=O)(=O)C1CC1 .
result: > 7.00

query: Fill: pEC50 (HCV replicon in Huh7 cells) for this compound C=CC1C[C@]1(NC(=O)[C@@H]1C[C@@H](Oc2nccc(-c3cccs3)n2)CN1C(=O)[C@@H](NC(=O)CC1CC1)C(C)(C)C)C(=O)NS(=O)(=O)C1CC1 (some centres unmarked)
result: 5.00 to 6.00

query: Look up HCV replicon in Huh7 cells data: pEC50 of C=CC1C[C@]1(NC(=O)[C@@H]1C[C@@H](Nc2nccc3ccccc23)CN1C(=O)[C@@H](NC(=O)OC(C)(C)C)C(C)(C)C)C(=O)NS(=O)(=O)C1CC1 (some centres unmarked) , then report it.
result: 6.00 to 7.00

query: For HCV replicon in Huh7 cells, give pEC50 of the listed compound: C=CC1C[C@]1(NC(=O)[C@@H]1C[C@@H](Oc2nccc3sccc23)CN1C(=O)[C@@H](NC(=O)OC(C)(C)C)C(C)(C)C)C(=O)NS(=O)(=O)C1CC1 (some centres unmarked)
result: 6.00 to 7.00

query: Lab note: HCV replicon in Huh7 cells assay, enter pEC50 for C=CC1C[C@]1(NC(=O)[C@@H]1C[C@@H](Oc2nccc(-c3cccs3)n2)CN1C(=O)[C@@H](NC(=O)OC)C(C)(C)C)C(=O)NS(=O)(=O)C1CC1 (some centres unmarked) here
result: 5.00 to 6.00

query: # return pEC50 of C=CC1C[C@]1(NC(=O)[C@@H]1C[C@@H](Oc2cc(C(F)(F)F)nc3c(Cl)cccc23)CN1C(=O)[C@@H](NC(=O)OC(C)(C)C)C(C)(C)C)C(=O)NS(=O)(=O)C1CC1 (some centres unmarked) (system: HCV replicon in Huh7 cells)
result: > 7.00

Where do the numbers come from? From patent US7915291B2.
